- Tested on: HL-60
- protocol_details: NCI tumour cell line growth inhibition, 48 h
The source made the active and inactive calls. Rule as the data show it: active = GI50 up to about 1.1 µM and inactive = higher.
endpoint_label: GI50

The examples below pair each entry with its known result.
N#C/C(N)=C(C#N)/N=C/N	> 100 µM (inactive)
CC(C)(C)/C(O)=C\c1nc2cc(C(F)(F)F)ccc2[nH]c1=O	0.53 µM (active)
C[C@H](CCC1=NCCN1)[C@H]1CC[C@H]2[C@@H]3[C@H](O)C[C@@H]4C[C@H](O)CC[C@]4(C)[C@H]3CC[C@]12C	> 10 µM (inactive)
C=CCC1C(=O)CC2(C)C(CC=C)C(=O)CC12C (stereo not given)	> 100 µM (inactive)
C[C@H](NC(=O)OC1C2C=CC(O)C1CC2)c1ccccc1 (stereo not given in full)	> 100 µM (inactive)

Would you kindly share the measured GI50 for OCCNc1nc2c(N3CCCC3)nc(N3CCNCC3)nc2nc1NCc1ccccc1 ? 15.5 µM (inactive)

Follow-up item: O=[N+]([O-])/C(C(Cl)=C(Cl)Cl)=C(/Cl)Sc1ccccc1 0.139 µM (active)

Please give the result for C/C(CC(=O)Nc1cc(Cl)c(Cl)cc1Cl)=N\NS(=O)(=O)c1ccc(C)cc1 too. 24.1 µM (inactive)

Similarly, NC1=NN(c2ccccc2)C(=O)C1C(=O)C(=O)Nc1ccc(Cl)c(Cl)c1 (stereo not given) ? 86.1 µM (inactive)

Please do the same for CC1=C(C)CC(C#N)(C#N)C(C#N)(C#N)C1 as well. 1.47 µM (inactive)

CCC(=O)O[C@@H]1C2C(OC(C)=O)C34COC(C)([C@@H]3C3C(C[C@]3(C)OC(C)=O)[C@@H](OC(=O)c3ccccc3)C4=O)[C@H](OC(C)=O)[C@@]2(OC(C)=O)C[C@@H]1C (stereo not given in full) , same question. 15.6 µM (inactive)

What about this compound? COc1cc(C2SCC(=O)N2c2ccc(NC(C)=O)cc2)cc(OC)c1OC (stereo not given) > 100 µM (inactive)

Follow-up item: Cn1c2c(c3ccccc31)CCN(CCN1CCN(c3cccc(Cl)c3)CC1)C2=O 15.9 µM (inactive)

Lookup C[C@]12Cc3conc3C(O)=C1CC[C@@H]1C2CC[C@@]2(C)C1CC[C@]2(C)O (stereo not given in full) 2.09 µM (inactive)

Proceed to CCN1C(C)=NC2C(=O)c3ccccc3C(=O)C21 (stereo not given) 37.8 µM (inactive)

* * *

Listed here: items and their measured GI50.
- Tested on: DU-145
- protocol_details: NCI tumour cell line growth inhibition, 48 h
Calls of active or inactive are those of the source. Rule as the data show it: active = GI50 up to about 1.1 µM and inactive = higher.

Check out these entries, answers already filled in.
C=C(C(=O)OC)N1C(=O)CC(C)C1=O (configuration not stated)	15.8 µM (inactive)
Cc1[nH]c2ncn3nc(C(Cl)(Cl)Cl)nc3c2c1Cc1ccccc1	> 100 µM (inactive)
CCOC(=O)CC(C)C(C#N)(OP1(=O)OC(c2ccccc2)C(C)N1C)c1ccccc1 (configuration not stated)	97.5 µM (inactive)
CCOC(=O)/C=C(/C=C\COC1CCCCO1)c1ccccc1 (configuration not stated)	40 µM (inactive)
CSc1nc(NC(C)C)c2c(n1)Sc1nc3ccccc3n1N=C2	12.7 µM (inactive)
CC(C)(C)OC(=O)N1CCC[C@H]1CSC[C@@H]1CCCN1C(=O)OC(C)(C)C	44 µM (inactive)

Next item in the queue.
What measured GI50 is associated with O=NN1C(c2ccccc2)CC(=NO)CC1c1ccccc1 (configuration not stated) on DU-145? > 100 µM (inactive)

* * *

- System: M14
- protocol_details: NCI tumour cell line growth inhibition, 48 h
The source made the active and inactive calls. Cut-off read from the data, not from the text of the source: active = GI50 up to about 1.1 µM and inactive = higher.
Listing of entries alongside the reported GI50.

Please review the entries below; each comes with its answer.
O=[N+]([O-])C(=C(N1CCCCC1)N1CCCCC1)/C(Cl)=C(\Cl)Br	20.6 µM (inactive)
CCN(CC)C(=O)Cc1c(C(=O)N(CC)CC)c(=O)nc2sccn12	> 100 µM (inactive)
CCOC(=O)c1csc(NC(=O)CCN2CCOCC2)n1	76.2 µM (inactive)
C[C@]12Cc3conc3C(O)=C1CC[C@@H]1C2CC[C@@]2(C)C1CC[C@]2(C)O (stereo partly specified)	16 µM (inactive)
C#CCNC(CSSCC(N)C(=O)O)C(=O)O (stereo unspecified)	> 100 µM (inactive)

From here, focus on the item given below.
Consider the compound shown here: CCOC(=O)CCc1cccc2c1oc1c(CCNC(=O)OCC3c4ccccc4-c4ccccc43)cccc12 What is its recorded GI50? 38.5 µM (inactive)

* * *

GI50 by entry:
- Test system: NCI-H460
- protocol_details: NCI tumour cell line growth inhibition, 48 h
Active and inactive are the calls of the source. Cut-off read from the data, not from the text of the source: active = GI50 up to about 1.1 µM and inactive = higher.

Previously resolved entries follow.
CC1=C(Br)C(=O)C(C)=C(Br)C1=O.Cc1c(O)c(Br)c(C)c(O)c1Br	6.71 µM (inactive)
O=NN1C(c2ccccc2)CC(=NO)CC1c1ccccc1 (stereo not given)	> 100 µM (inactive)
Nc1ncc(Br)c(NCC2(CO)CCC2)n1	71.9 µM (inactive)
CCC1=CC2Cc3nc4cc(Cl)ccc4c(N)c3C(C1)C2 (stereo not given)	4.07 µM (inactive)

Return reported GI50; argument: O=C1C=C(Nc2nc(O)cc(C(=O)O)n2)c2ccccc2C1=O > 100 µM (inactive)
